TARGET_OR_SYSTEM: human PAD4 (Homo sapiens)
Construct: human PAD4 (NM_012387), A2P663, was PCR amplified; His-SUMO (N, cleaved yes)
METHOD_NOTES: In vitro PAD4 BAEE biochemical assay
TEST_PARAMETERS: human PAD4, BAEE substrate; 5 nM PAD4, 2 mM calcium chloride, 3 mM BAEE; geometric mean of multiple experiments
RECORDED_METRIC: IC50 (nM)
Quick note: give the figure in nM, leave out the unit.

Please report the recorded IC50 for COc1cc(C(=O)N2[C@H]3CC[C@@H]2[C@H](N)C3)cc2nc(-c3cc4ccc([C@@H](C)NC(=O)c5cccn(C)c5=O)nc4n3CC3CC3)c(C)n12 [Example 30] . 82.4

Please report the recorded IC50 for COc1cc(C(=O)N2C[C@H]3CC[C@@H]2[C@@H]3N)cc2nc(-c3cc4ccc(N(C)S(C)(=O)=O)nc4n3C)c(C)n12 [Example 493] . 2500

Please report the recorded IC50 for CS(=O)(=O)N(c1ccc2cc(-c3nc4cc(C(=O)N5[C@H]6CC[C@@H]5[C@H](N)C6)ccn4c3C3CC3)n(CC3CC3)c2n1)C(F)F [Example 386] . 126

Please report the recorded IC50 for COc1cc(C(=O)N2[C@H]3CC[C@@H]2[C@H](N)C3)cc2nc(-c3cc4ccc([C@@H](C)NC(=O)C5(C#N)CC5)nc4n3CC3CC3)c(C)n12 [Example 165] . 60.5

Please report the recorded IC50 for COc1cc(C(=O)N2CC[C@@H]3CCNC[C@@H]32)cc2nc(-c3cc4ccc(N(C(F)F)S(C)(=O)=O)nc4n3CC3CC3)c(C)n12 (single isomer, unassigned) [Example 417] . 7180

Please report the recorded IC50 for COc1cc(C(=O)N2C[C@H](N)CC[C@@H]2C)cc2nc(-c3cc4ccc(N(C(F)F)S(C)(=O)=O)nc4n3CC3CC3)c(CC3CC3)n12 [Example 405] . 589

Please report the recorded IC50 for COc1cc(C(=O)N2CC[C@H]3OCCN[C@H]3C2)cc2nc(-c3cc4ccc(N(C(F)F)S(C)(=O)=O)nc4n3CC3CC3)c(C3CC3)n12 [Example 384] . 888

Please report the recorded IC50 for COc1cc(C(=O)N2[C@H]3CC[C@@H]2[C@H](N)C3)cc2nc(-c3cc4ccc([C@@H](C)NC(=O)N5CCCC5)nc4n3CC3CC3)c(C)n12 [Example 251] . 50.2

Please report the recorded IC50 for Cc1c(-c2cc3ccc(N(C(F)F)S(C)(=O)=O)nc3n2CC2CC2)nc2cc(C(=O)N3C[C@H](N)CC[C@@H]3C)ccn12 [Example 402] . 203

Please report the recorded IC50 for COc1cc(C(=O)N2[C@H]3CC[C@@H]2[C@H](N)C3)cc2nc(-c3cc4ccc([C@@H](C)NC(=O)CCN5C(=O)NC(C)(C)C5=O)nc4n3CC3CC3)c(C)n12 [Example 148] . 56.2

Please report the recorded IC50 for COc1cc(C(=O)N2[C@H]3CC[C@@H]2[C@H](N)C3)cc2nc(-c3cc4ccc([C@@H](C)NC(=O)c5ccccc5C(F)(F)F)nc4n3CC3CC3)c(C)n12 [Example 10] . 259

Please report the recorded IC50 for COc1cc(C(=O)N2C[C@@H](N)[C@H](F)C2)cc2nc(-c3cc4ccc(N(C(F)F)S(C)(=O)=O)nc4n3CC3CC3)c(C)n12 [Example 280] . 33800

----------
TARGET_OR_SYSTEM: human PAD4 (Homo sapiens, UniProt Q9UM07)
Construct: human PAD4 (NM_012387), A2P663, was PCR amplified; His-SUMO (N, cleaved yes)
Sequence (Q9UM07 2-663): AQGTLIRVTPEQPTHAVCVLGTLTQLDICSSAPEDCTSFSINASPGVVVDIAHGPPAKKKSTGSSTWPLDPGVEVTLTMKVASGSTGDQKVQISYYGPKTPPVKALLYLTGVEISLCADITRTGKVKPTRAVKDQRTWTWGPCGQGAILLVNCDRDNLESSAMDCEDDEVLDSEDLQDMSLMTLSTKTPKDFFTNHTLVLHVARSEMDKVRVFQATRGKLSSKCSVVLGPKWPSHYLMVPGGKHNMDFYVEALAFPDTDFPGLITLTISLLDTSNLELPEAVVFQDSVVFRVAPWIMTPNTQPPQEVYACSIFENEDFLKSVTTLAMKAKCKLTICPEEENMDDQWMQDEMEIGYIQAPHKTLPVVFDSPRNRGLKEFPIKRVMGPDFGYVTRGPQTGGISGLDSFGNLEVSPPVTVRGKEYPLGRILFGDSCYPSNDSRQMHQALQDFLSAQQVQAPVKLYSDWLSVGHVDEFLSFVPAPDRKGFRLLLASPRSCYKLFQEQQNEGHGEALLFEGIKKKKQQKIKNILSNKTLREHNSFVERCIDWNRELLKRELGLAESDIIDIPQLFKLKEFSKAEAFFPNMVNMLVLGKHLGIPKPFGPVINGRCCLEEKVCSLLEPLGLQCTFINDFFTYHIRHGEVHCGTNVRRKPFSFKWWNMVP
METHOD_NOTES: In vitro PAD4 BAEE biochemical assay
TEST_PARAMETERS: human PAD4, BAEE substrate; 5 nM PAD4, 2 mM calcium chloride, 3 mM BAEE; geometric mean of multiple experiments
Threshold-based label: IC50 under 2000 nM gives Met, IC50 not under 2000 nM gives Not met.

Consider "COc1cc(C(=O)NC[C@@H]2CCCN2)cc2nc(-c3cc4ccc(N(C(F)F)S(C)(=O)=O)nc4n3CC3CC3)c(C)n12" . Does its IC50 lie strictly below 2000 nM? Not met

Consider "CCc1ccc2cc(-c3nc4cc(C(=O)N5C[C@]6(N)CC[C@H]5C6)cc(OC)n4c3C)n(CC3CC3)c2n1" . Does its IC50 lie strictly below 2000 nM? Not met

Consider CCc1ccc2cc(-c3nc4cc(C(=O)N5[C@H]6CC[C@@H]5[C@H](N)C6)cc(OC)n4c3C)n(CC3CC3C)c2n1 (stereo partly drawn) . Does its IC50 lie strictly below 2000 nM? Met

Consider "COc1cc(C(=O)N2[C@H]3CC[C@@H]2[C@H](N)C3)cc2nc(-c3cc4ccc([C@@H](C)NC(=O)C5(C(F)(F)F)CCC5)nc4n3CC3CC3)c(C)n12" . Does its IC50 lie strictly below 2000 nM? Met

Consider "Cc1c(-c2cc3ccc(N(C(F)F)S(C)(=O)=O)nc3n2CC2CC2)nc2cc(C(=O)N3CCC[C@@H](N)C3)cc(C(F)F)n12" . Does its IC50 lie strictly below 2000 nM? Met

Consider "COc1cc(C(=O)N2[C@H]3CC[C@@H]2[C@H](N)C3)cc2nc(-c3cc4ccc([C@@H](C)Nc5ncc(F)cn5)nc4n3CC3CC3)c(C)n12" . Does its IC50 lie strictly below 2000 nM? Met

----------
TARGET_OR_SYSTEM: human PAD4 (Homo sapiens)
Construct: human PAD4 (NM_012387), A2P663, was PCR amplified; His-SUMO (N, cleaved yes)
METHOD_NOTES: In vitro PAD4 BAEE biochemical assay
TEST_PARAMETERS: human PAD4, BAEE substrate; 5 nM PAD4, 2 mM calcium chloride, 3 mM BAEE; geometric mean of multiple experiments
RECORDED_METRIC: pIC50
Keep in mind that pIC50 stands for -log10 of concentration in molar terms.

Please report the recorded pIC50 for "COc1cc(C(=O)N2[C@H]3CC[C@@H]2[C@H](N)C3)cc2nc(-c3cc4ccc([C@@H](C)NC(=O)C5(C)COC5)nc4n3CC3CC3)c(C3CC3)n12" . 7.50

Please report the recorded pIC50 for "CCCC(=O)N[C@H](C)c1ccc2cc(-c3nc4cc(C(=O)N5[C@H]6CC[C@@H]5[C@H](N)C6)cc(OC)n4c3C)n(CC3CC3)c2n1" . 7.52

Please report the recorded pIC50 for "COc1cc(C(=O)N2CCC[C@@H](N)C2)cc2nc(-c3cc4ccc([C@@H](C)N(C)C(=O)c5ccccc5)nc4n3CC3CC3)c(C)n12" . 6.56

----------
TARGET_OR_SYSTEM: human PAD4 (Homo sapiens)
Construct: human PAD4 (NM_012387), A2P663, was PCR amplified; His-SUMO (N, cleaved yes)
METHOD_NOTES: In vitro PAD4 BAEE biochemical assay
TEST_PARAMETERS: human PAD4, BAEE substrate; 5 nM PAD4, 2 mM calcium chloride, 3 mM BAEE; geometric mean of multiple experiments
RECORDED_METRIC: IC50 (nM)
Quick note: give the figure in nM, leave out the unit.

Please report the recorded IC50 for COc1cc(C(=O)N2[C@H]3CC[C@@H]2[C@H](N)C3)cc2nc(-c3cc4ccc([C@@H](C)NC(=O)CC(C)(C)OC)nc4n3CC3CC3)c(C)n12 [Example 39] . 86.2

Please report the recorded IC50 for COc1cc(C(=O)N2[C@H]3CC[C@@H]2[C@H](N)C3)cc2nc(-c3cc4ccc([C@H](C)CC(=O)N5CCCC5)nc4n3CC3CC3)c(C)n12 [Example 522] . 135

Please report the recorded IC50 for CCC(C)(O)c1ccc2cc(-c3nc4cc(C(=O)N5[C@H]6CC[C@@H]5[C@H](N)C6)cc(OC)n4c3C)n(CC3CC3)c2n1 (stereo partly drawn) [Example 572] . 152

Please report the recorded IC50 for COc1cc(C(=O)N2C[C@H](N)C[C@@H]2C)cc2nc(-c3cc4ccc(N(C(F)F)S(C)(=O)=O)nc4n3CC3CC3)c(C)n12 [Example 354] . 1890

Please report the recorded IC50 for COc1cc(C(=O)N2[C@H]3CC[C@@H]2[C@H](N)C3)cc2nc(-c3cc4ccc([C@@H](C)NC(=O)C5CC(F)(F)C5)nc4n3CC3CC3)c(C)n12 [Example 85] . 28.7

Please report the recorded IC50 for COc1cc(C(=O)N2[C@H]3CC[C@@H]2[C@H](N)C3)cc2nc(-c3cc4ccc([C@@H](C)NC(=O)NCc5ccccc5)nc4n3CC3CC3)c(C)n12 [Example 233] . 103

Please report the recorded IC50 for COc1cc(C(=O)N2[C@H]3CC[C@@H]2[C@H](N)C3)cc2nc(-c3cc4ccc(N5CCCCCS5(=O)=O)nc4n3CC3CC3)c(C)n12 [Example 459] . 28

Please report the recorded IC50 for COc1cc(C(=O)N2[C@H]3CC[C@@H]2[C@H](N)C3)cc2nc(-c3cc4ccc([C@@H](C)NC(=O)C(C)(C)O)nc4n3CC3CC3)c(C)n12 [Example 126] . 45.9

Please report the recorded IC50 for [2H]C([2H])([2H])OC(=O)N[C@H](C)c1ccc2cc(-c3nc4cc(C(=O)N5[C@H]6CC[C@@H]5[C@H](N)C6)cc(OC)n4c3C)n(CC3CC3)c2n1 [Example 164] . 79

Please report the recorded IC50 for COc1cc(C(=O)N2[C@H]3CC[C@@H]2[C@H](N)C3)cc2nc(-c3cc4ccc([C@@H](C)NC(=O)N5CC(C(=O)O)C5)nc4n3CC3CC3)c(C)n12 [Example 237] . 35.6

Please report the recorded IC50 for CCc1ccc2cc(-c3nc4cc(C(=O)N5[C@H]6CC[C@@H]5[C@H](N)C6)cc(OC)n4c3C)n(-c3cnc(C)s3)c2n1 [Example 511] . 4680

Please report the recorded IC50 for COc1cc(C(=O)N2[C@H]3CC[C@@H]2[C@H](N)C3)cc2nc(-c3cc4ccc(C5CCN(C(C)=O)C5)nc4n3CC3CC3)c(C)n12 (stereo partly drawn) [Example 531] . 134

Origin of the recorded values: patent US12240862B2
